- Target system: Pantothenate synthetase (Mycobacterium tuberculosis (strain ATCC 25618 / H37Rv))
- Test description: Coupled enzyme confirmation of inhibitors against recombinant Mtb PanC (AID 375);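 also: 0% = full reaction with vehicle and 100% = no enzyme background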
- Test parameters: coupled enzyme assay; at 10 µM, active compounds read high
Quick reference for inhibition among some compounds

{"Compound": "c1ccc2c(c1)nc(NCCN1CCOCC1)c1nncn12", "inhibition, %": 2}
{"Compound": "O=C(O)C1CC(=O)N(c2ccc(OCc3c(F)cccc3Cl)cc2)C1 (stereo not given)", "inhibition, %": 2}
{"Compound": "Cc1cccc(N2CCN(S(=O)(=O)c3ccc4c(c3)CCC(=O)N4)CC2C)c1 (stereo not given)", "inhibition, %": 6}
{"Compound": "COc1ccc(-c2nc(C#N)c(N3CCOCC3)o2)cc1OC", "inhibition, %": 0}
{"Compound": "O=c1[nH]c(SCc2ccc(F)cc2)nc2c1cnn2-c1ccc(F)cc1", "inhibition, %": 0}
{"Compound": "CCc1c(C)nc2ncnn2c1N1CCC(C(=O)NCc2cccc(OC)c2)CC1", "inhibition, %": 0}
{"Compound": "CC(C)COC(=O)C(C#N)c1nc2ccccc2nc1N1CCN(Cc2ccccc2)CC1 (stereo not given)", "inhibition, %": 0}
{"Compound": "Cc1ccc(C2Nc3ccccc3-c3nc4ccccc4n32)o1 (stereo not given)", "inhibition, %": 0}
{"Compound": "Cc1cccc(OCCCc2c(C)n[nH]c2C)c1", "inhibition, %": 0}
{"Compound": "CN1CCc2nc(SCC(=O)Nc3ccc(F)cc3)c(C#N)cc2C1", "inhibition, %": 8}
{"Compound": "COc1ccc(CNc2nc(SCC(=O)NCc3ccco3)nc3ccccc23)cc1", "inhibition, %": 10}
{"Compound": "COC(=O)c1ccccc1S(=O)(=O)NC(=O)c1ccccc1", "inhibition, %": 0}
{"Compound": "C/C=C/Cn1c(Br)nc2c1c(=O)[nH]c(=O)n2C", "inhibition, %": 0}
{"Compound": "CC(C)CC(=O)N1CCN(S(=O)(=O)c2ccc(F)cc2)CC1", "inhibition, %": 0}
{"Compound": "CC(C)CCNc1cc(=O)n(C)c(=O)n1C", "inhibition, %": 0}
{"Compound": "CN(C1CCS(=O)(=O)C1)S(=O)(=O)c1cccc2nsnc12 (stereo not given)", "inhibition, %": 2}
{"Compound": "CC(=O)Nc1nc(C)c(-c2csc(Nc3ccc(O)cc3)n2)s1", "inhibition, %": 0}
{"Compound": "CC1C(=O)C(C)C(c2cccs2)NC1c1cccs1 (stereo not given)", "inhibition, %": 0}
{"Compound": "Nc1nc2n(n1)C(c1cccc(Br)c1)CC(c1ccc(F)cc1)N2 (stereo not given)", "inhibition, %": 0}
{"Compound": "COc1cccc(NC(=O)N(CCCN2CCOCC2)C(C)c2cc3cccc(OC)c3o2)c1 (stereo not given)", "inhibition, %": 0}
{"Compound": "CCCCn1c(=O)[nH]c(=O)c2c1nc(COc1ccc(C#N)cc1)n2CCC", "inhibition, %": 4}
{"Compound": "c1ccc(-c2ccc(-c3ccccn3)nn2)nc1", "inhibition, %": 8}
{"Compound": "CCCn1c2c(c(O)c(C(=O)Nc3ccc(C)cn3)c1=O)CCCC2", "inhibition, %": 4}
{"Compound": "O=C1C(C=NCCCn2ccnc2)=C(O)c2ccccc21", "inhibition, %": 8}
{"Compound": "CCc1ccccc1NC(=O)C(CC)Sc1nc2cc3c(cc2c(=O)n1Cc1ccco1)OCO3 (stereo not given)", "inhibition, %": 0}
{"Compound": "O=C(/C=N/O)NCc1ccncc1", "inhibition, %": 1}
{"Compound": "COc1cccc(NC(=O)CC2SC(=Nc3ccccc3)NC2=O)c1 (stereo not given)", "inhibition, %": 0}
{"Compound": "CCCCCc1c(C)nc(N2CCc3ccccc32)[nH]c1=O", "inhibition, %": 0}
{"Compound": "O=C(COc1nnc2ccccn12)N1CCN(S(=O)(=O)c2ccccc2)CC1", "inhibition, %": 1}
{"Compound": "c1cc2c(cc1C1CCCN1)OCCCO2 (stereo not given)", "inhibition, %": 2}
{"Compound": "Cc1nc(=S)n(-c2ccccc2)[nH]1", "inhibition, %": 0}
{"Compound": "COc1ccc(NC(=O)c2ccco2)cc1NC(=O)c1cccs1", "inhibition, %": 0}
{"Compound": "CC(=O)N1CCc2cc(S(=O)(=O)CCC(=O)N3CCN(c4ccccn4)CC3)ccc21", "inhibition, %": 11}
{"Compound": "COCCNC(=O)C(c1ccc(C)o1)N(Cc1ccc(OC)cc1)C(=O)Cn1nnc2ccccc21 (stereo not given)", "inhibition, %": 1}
{"Compound": "CCN1CCN(S(=O)(=O)Cc2ccccc2)CC1", "inhibition, %": 0}
